Assay explanation: qHTS assay to identify small molecule agonists of the farnesoid-X-receptor (FXR) signaling pathway - cell viability counter screen (AID 743218); further: nearly all actives have a fitted effect of over 45% in size; further: potency means the concentration at half of the fitted maximal effect
Conditions: FXR-bla HEK293T viability, CellTiter-Glo luminescence, 16 h; series mostly up to 62.6 µM
Results filed as inconclusive are left out. The source made the active and inactive calls. The call rests on the fitted dose curve; in most records, active means well fitted cell-killing curve with a large enough effect in the repeat runs; inconclusive means weak or mixed curves, or effect the other way; inactive means no such curve, though single readings can be large or run the other way.
Measured metric: Potency

C[C@]12CCC(=O)C=C1CC[C@@H]1[C@@H]2[C@@H](O)C[C@@]2(C)[C@H]1CC[C@]2(O)C(=O)COC(=O)CCC(=O)O = inactive
NC(=O)N1C(=O)C(C(=O)c2cc(Cl)cs2)c2cc(F)c(Cl)cc21 (centres undefined) = 3.89 µM (active)
C=C(C)C(=O)OCC[N+](C)(C)C = inactive
CC/C(=C(\c1ccc(O)cc1)c1ccc(OCCN(C)C)cc1)c1ccccc1 = 15.5 µM (active)
Cc1c(C)c2c(c(C)c1O)CCC(C)(COc1ccc(CC3SC(=O)NC3=O)cc1)O2 (centres undefined) = inactive

stdin: Looking for the measured Potency of CC(C)CCCCCCCCCCCCCCC(=O)O , can you help?
stdout: inactive

stdin: Looking for the measured Potency of CCCCN(CCCC)C(=O)N(CCCC)CCCC , can you help?
stdout: inactive

stdin: Looking for the measured Potency of CN(C)C(=O)C1(N2CCCCC2)CCN(CC[C@@]2(c3ccc(Cl)c(Cl)c3)CN(C(=O)c3ccccc3)CCO2)CC1 , can you help?
stdout: 16.2 µM (active)

stdin: Looking for the measured Potency of CCCCCCC[N+](CC)(CC)CCCCc1ccc(Cl)cc1 , can you help?
stdout: inactive
